Parameter: GI50. Scope: all listed entries.
test system: HCC 2998; test: NCI tumour cell line growth inhibition, 48 h
Calls of active or inactive are those of the source. Cut-off read from the data, not from the text of the source: active = GI50 up to about 1.1 µM and inactive = higher.

Example cases with answers are listed next.
                                   compound       reported_value
0  CCN(CC)CCCNc1n[n+]([O-])c2ccccc2[n+]1[O-]   3.46 µM (inactive)
1  Nc1nc(=O)c(/N=N/c2ccc([As](=O)(O)O)cc2)c(N)[nH]1  > 100 µM (inactive)
2            COc1ccc(Cc2nc3cc(Cl)ccc3o2)cc1   20.8 µM (inactive)
3  CCOC(=O)[C@@H]1ON2O[C@@H](OC3CCCCC3c3ccccc3)C[C@H]3OC(=O)[C@@H]1C32 (stereo partly drawn)   66.7 µM (inactive)
4     Oc1cc(-c2cccc(Br)c2)nc2cc3c(cc12)OCO3   15.1 µM (inactive)
5  O=c1[nH]cc(COCC(F)(F)C(F)(F)C(F)(F)C(F)F)c(=O)[nH]1  > 100 µM (inactive)

# query: GI50 of entry Cc1ccc([N+](=O)[O-])cc1NC(=O)C(=O)Cc1cc(=O)oc2cc(O)ccc12
> 100 µM (inactive)

May I ask what GI50 has been recorded for CC(=O)Nc1ccc2c3c(cc(O)c2c1)N(C(=O)CCCCCC(=O)N1CC(CCl)c2c1cc(O)c1cc(NC(C)=O)ccc21)CC3CCl (stereo not drawn) ?
0.0211 µM (active)

Quick one: GI50 of Cc1ccc(C2(c3ccc(Cl)cc3)c3ccccc3C3=NCCN32)cc1 (stereo not drawn) ?
5.58 µM (inactive)

Provenance of the data: ChEMBL document CHEMBL1201862
